Ref: ChEMBL document CHEMBL4219033

# System: MDA-MB-231
# assay.remarks: Cytotoxicity against human MDA-MB-231 cells assessed as cell viability at 10 uM after 24 hrs by MTT assay relative to control
# Format: functional
# condition.parameters: MDA-MB-231, 24 h, read-out: Activity
Collected viability at 10 µM values appear next to each entry.
recorded.metric: viability at 10 µM (%)

# compound.structure.string, experimental.result
measured = [
    ("C=C1C(=O)O[C@@H]2[C@H]3O[C@]3(C)CC/C=C(/COC(=O)c3ccc4ccccc4c3)CC[C@@H]12", 100),
    ("C=C1C(=O)O[C@@H]2[C@H]3O[C@]3(C)CC/C=C(/COC(=O)Nc3ccc([N+](=O)[O-])cc3)CC[C@@H]12", 41.3),
    ("C=C1C(=O)O[C@@H]2[C@H]3O[C@]3(C)CC/C=C(/C)[C@@H](OC(=O)c3cc(-c4ccc(Cl)cc4)on3)C[C@@H]12", 84.7),
    ("C=C1C(=O)O[C@@H]2[C@H]3O[C@]3(C)CC/C=C(\\C)[C@@H](OC(=O)c3ccc(C(F)(F)F)cc3)C[C@@H]12", 69),
]

###

# Test system: PC-3
# assay.remarks: Cytotoxicity against human PC3 cells assessed as cell viability at 10 uM after 24 hrs by MTT assay relative to control
# Type: functional
# condition.parameters: PC-3, 24 h, read-out: Activity

# compound.structure.string, viability at 10 µM
measured = [
    ("C=C1C(=O)O[C@@H]2[C@H]3O[C@]3(C)CC/C=C(/C)[C@@H](OC(=O)Nc3ccc([N+](=O)[O-])cc3)C[C@@H]12", "94.1%"),
    ("C=C1C(=O)O[C@@H]2[C@H]3O[C@]3(C)CC/C=C(/COC(=O)c3ccc(C(F)(F)F)cc3)CC[C@@H]12", "69.3%"),
    ("C=C1C(=O)O[C@@H]2[C@H]3O[C@]3(C)CC/C=C(/COC(=O)c3ccc(C(F)(F)F)cc3C(F)(F)F)CC[C@@H]12", "4%"),
    ("C=C1C(=O)O[C@@H]2[C@H]3O[C@]3(C)CC/C=C(/COCc3ccc(C(F)(F)F)cc3)CC[C@@H]12", "89.3%"),
    ("C=C1C(=O)O[C@@H]2[C@H]3O[C@]3(C)CC/C=C(/COC(=O)c3ccc4ccccc4c3)CC[C@@H]12", "81.9%"),
]

###

# Test system: SJSA-1
# assay.remarks: Cytotoxicity against human SJSA1 cells assessed as cell viability at 10 uM after 24 hrs by MTT assay relative to control
# Assay type: functional
# condition.parameters: SJSA-1, 24 h, read-out: Activity

# molecule, tested.on, unit.of.measure, viability at 10 µM
rows = [
    ("C=C1C(=O)O[C@@H]2[C@H]3O[C@]3(C)CC/C=C(/COC(=O)Nc3ccccc3)CC[C@@H]12", "SJSA-1", "%", 100),
    ("C=C1C(=O)O[C@@H]2[C@H]3O[C@]3(C)CC/C=C(/COc3coc(-c4ccc(Br)cc4)c3)CC[C@@H]12", "SJSA-1", "%", 93.7),
    ("C=C1C(=O)O[C@@H]2[C@H]3O[C@]3(C)CC/C=C(/C)[C@@H](OC(=O)Nc3ccc([N+](=O)[O-])cc3)C[C@@H]12", "SJSA-1", "%", 100),
    ("C=C1C(=O)O[C@@H]2[C@H]3O[C@]3(C)CC/C=C(/C)[C@@H](OC(=O)c3cc(C(F)(F)F)cc(C(F)(F)F)c3)C[C@@H]12", "SJSA-1", "%", 88.2),
    ("C=C1C(=O)O[C@@H]2[C@H]3O[C@]3(C)CC/C=C(/C)[C@@H](OC(=O)c3ccc(C(F)(F)F)cc3C(F)(F)F)C[C@@H]12", "SJSA-1", "%", 26.5),
    ("C=C1C(=O)O[C@@H]2[C@H]3O[C@]3(C)CC/C=C(/C)[C@@H](OC(C(=O)OCC)c3ccc(C(F)(F)F)cc3)C[C@@H]12 (some centres not stated)", "SJSA-1", "%", 100),
    ("C=C1C(=O)O[C@@H]2[C@H]3O[C@]3(C)CC/C=C(/C)[C@@H](OC(=O)Nc3ccc(F)cc3F)C[C@@H]12", "SJSA-1", "%", 100),
    ("C=C1C(=O)O[C@@H]2[C@H]3O[C@]3(C)CC/C=C(\\C)[C@@H](OC(=O)c3ccc(C(F)(F)F)cc3)C[C@@H]12", "SJSA-1", "%", 58.2),
    ("C=C1C(=O)O[C@@H]2[C@H]3O[C@]3(C)CC/C=C(/C)[C@@H](OC(=O)c3cccs3)C[C@@H]12", "SJSA-1", "%", 98.3),
    ("C=C1C(=O)O[C@@H]2[C@H]3O[C@]3(C)CC/C=C(/COC(C(=O)OCC)c3ccccc3)CC[C@@H]12 (some centres not stated)", "SJSA-1", "%", 100),
    ("C=C1C(=O)O[C@@H]2[C@H]3O[C@]3(C)CC/C=C(/C)[C@@H](OC(=O)Nc3cccc4ccccc34)C[C@@H]12", "SJSA-1", "%", 100),
    ("C=C1C(=O)O[C@@H]2[C@H]3O[C@]3(C)CC/C=C(/C)[C@@H](OC(C(=O)OCC)c3ccccc3)C[C@@H]12 (some centres not stated)", "SJSA-1", "%", 100),
    ("C=C1C(=O)O[C@@H]2[C@H]3O[C@]3(C)CC/C=C(/COC(=O)c3cc(C(F)(F)F)cc(C(F)(F)F)c3)CC[C@@H]12", "SJSA-1", "%", 23.1),
    ("C=C1C(=O)O[C@@H]2[C@H]3O[C@]3(C)CC/C=C(/COC(=O)Nc3ccc([N+](=O)[O-])cc3)CC[C@@H]12", "SJSA-1", "%", 44.5),
    ("C=C1C(=O)O[C@@H]2[C@H]3O[C@]3(C)CC/C=C(/COC(C(=O)OCc3ccccc3)c3ccccc3)CC[C@@H]12 (some centres not stated)", "SJSA-1", "%", 101),
    ("C=C1C(=O)O[C@@H]2[C@H]3O[C@]3(C)CC/C=C(/COC(C(=O)OCC)c3ccc(C(F)(F)F)cc3)CC[C@@H]12 (some centres not stated)", "SJSA-1", "%", 100),
    ("C=C1C(=O)O[C@@H]2[C@H]3O[C@]3(C)CC/C=C(/COC(=O)c3ccc4ccccc4c3)CC[C@@H]12", "SJSA-1", "%", 98.3),
]
